- Test system: SNB-78 CNS
- methodSummary: NCI tumour cell line growth inhibition, 48 h
measuredQuantity: TGI

Ask: Given the entry `Cn1cc(NC(=O)c2cc(NC(=O)CCCCCCCCCCC(=O)Nc3cc(C(=O)Nc4cc(C(=O)NCCC(=N)N)n(C)c4)n(C)c3)cn2C)cc1C(=O)NCCC(=N)N` , report its measured TGI.
Reply: > 100 µM

Ask: I have this compound here, `O=C1NC2(CCCC2)C(=O)C12CCCC2` , and I need its recorded TGI.
Reply: > 100 µM

Below: the item to evaluate.
Ask: Please report the recorded TGI for CCOC(=O)C1(CC)CCCCC(=O)N1 (stereo not drawn) .
Reply: > 100 µM

----------
log10 of TGI values, listed per item
- System: SR leukemia
- methodSummary: NCI tumour cell line growth inhibition, 48 h
Quick note: numbers are log10 of TGI, with µM as the unit.

Record excerpt, results attached:
Ask: Fill blank: measured log10 of TGI of the compound `CN=C(N)N/N=C(\c1ccccc1)c1ccc(Br)cc1` is ____.
Reply: 0.38

Ask: Look at this compound and give its reported log10 of TGI. `FC(F)(F)c1nc(-c2ccccc2Cl)[nH]c1C(F)(F)F`
Reply: 0.23

Ask: What value of log10 of TGI has been recorded for this entry: `CN(C)CC(=O)N1CCC(c2ccc(NC(=O)c3ncc(C#N)[nH]3)c(C3=CCCCC3)c2)CC1`
Reply: 0.81

Ask: What measured log10 of TGI goes with `O=C(/C=C/c1ccccc1)/C=C/c1ccccc1O` ?
Reply: 1.86

Ask: Name the recorded log10 of TGI for CCCCCCCCCCCCC(=O)OC(c1cnco1)c1nc(C(O)CC(O)C(O)C(C)O)co1 (stereo not given) .
Reply: 0.40

Ask: Could you tell me which log10 of TGI is on file for `CCN1CCN(c2nc(NCCCNc3ccnc4cc(Cl)ccc34)c3ccccc3n2)CC1` ?
Reply: 0.74

For the next question, use this compound.
Ask: I have this compound here, `COC1(C(=O)N2Cc3nc(Cl)nc(N[C@H](C)c4cc(N)cc(C(F)(F)F)c4)c3C2)CCOCC1` , and I need its recorded log10 of TGI.
Reply: 1.69

----------
- Tested on: OVCAR-4 ovarian
- methodSummary: NCI tumour cell line growth inhibition, 48 h; in the data active = GI50 below about 0.43 µM; inactive = the rest
Choose one outcome from this list and give only that: 1 (active), 0 (inactive)

Look over these answered cases.
Ask: Record request — test call for `Cc1cc([C@@H](C)Nc2ccccc2C(=O)O)c2nc(N3CCOCC3)cc(=O)n2c1`
Reply: 0

Ask: Recorded test call requested for `Oc1ccccc1/C=N/Nc1ccc2ccccc2n1`
Reply: 0

Ask: Which result was noted for this compound in the test: `C#Cc1ccc(-n2c(/C=C/c3ccc(Cl)c(F)c3)nc3ncccc3c2=O)cc1`
Reply: 1

Ask: Recorded test call requested for `O=C1/C(=C/c2ccc(F)cc2)CCOc2ccc([N+](=O)[O-])cc21`
Reply: 0

Ask: Outcome logged for C=C1C(O)C2CCC(C)(C)C(=O)C2=C(CC(C)C)C12CC2 (stereo unspecified) in this assay:
Reply: 0

Further cases:
Ask: Assay outcome for `COc1cc2ncn(-c3cc(OCc4ccccc4Cl)c(C(N)=O)s3)c2cc1OC` : what was it?
Reply: 0

Ask: Hi team, can someone confirm the assay call for `CC(=O)c1ccc(Nc2cc(-c3ccccc3)nc3c(O)cccc23)cc1` ?
Reply: 0

Ask: Record request — test call for `COc1ccc(C(=O)Nc2ncc(Cc3ccc(Cl)cc3)s2)cc1`
Reply: 0

Ask: Dear all, I need the recorded test outcome for `O=[Se]([O-])c1ccccc1.O=[Se]([O-])c1ccccc1.[OH3+].[OH3+].[Pt+2]` , thank you.
Reply: 0

Ask: Could you kindly confirm the outcome this assay logged for `Cc1nn(-c2ccc(F)cc2)c2ncnc(Nc3ccc(NC(=O)Nc4ccc(Cl)c(C(F)(F)F)c4)cc3)c12` ?
Reply: 0

Ask: Tell me the recorded outcome of this test for `COC1(C(=O)N2Cc3nc(Cl)nc(N[C@H](C)c4cc(N)cc(C(F)(F)F)c4)c3C2)CCOCC1` .
Reply: 0
